Just for reference, patent US9789089B2 is where these values come from.

Please respond with reported CC50 at 5 days for every item in the list.
- TEST_DETAILS: Test B: Cytotoxicity assay
- Type: cell-based
- PARTICULARS: human, uninfected MT-4 cells, same protocol as Test A, CellTiter-Glo
One number for each entry, in µM.

Sample records with CC50 at 5 days:
Cc1nc(-c2ccccc2)c(C(Cc2ccccc2)NC(=O)Cc2c[nH]c3ccc(O)cc23)s1 (stereo not shown) [Compound 15C] = 35
O=C(Cc1c[nH]c2ccc(O)nc12)NC(Cc1cc(F)cc(F)c1)c1cnc(-c2ccc(Cl)cc2)o1 (stereo not shown) [Compound 22] = 50.7
O=C(Cc1c[nH]c2ccc(O)cc12)NC(Cc1cc(F)cc(F)c1)c1ncoc1-c1ccc(Cl)cc1 (stereo not shown) [Compound 34] = 22.1

Next compound, please.
In: Query: CC50 at 5 days; subject: COc1ccc2[nH]cc(CC(=O)NC(Cc3cc(F)cc(F)c3)c3cnc(-c4ccc(Cl)cc4)o3)c2n1 (stereo not shown) [Compound 21]
Out: 25.4

====

- System: HIV-IIIb
- TEST_DETAILS: Test A: Antiviral Assay in MT4 Cells
- Format: cell-based, HIV-1
- PARTICULARS: Human immunodeficiency virus 1, MT4, 120 h; percent inhibition of virus-induced cell killing at 6 μM drug concentration, from the dose response curve; MT-4 cells infected with HIV-IIIb, 5 days; read-out: % inhibition at 6 μM
OBSERVATION_TYPE: inhibition at 6 µM (%)
Numbers only, in %.

Sample records with inhibition at 6 µM:
O=C(Cc1c[nH]c2ccc(F)cc12)N[C@@H](Cc1cc(F)cc(F)c1)c1nocc1-c1ccc(Cl)cc1 [Compound 25I] = 68
O=C(Cc1c[nH]c2ccc(O)cc12)NC(Cc1cc(F)cc(F)c1)c1ncoc1-c1ccc(Cl)cc1 (stereo not shown) = 0
COc1ccc2[nH]cc(CC(=O)NC(Cc3cc(F)cc(F)c3)c3cnc(-c4ccc(Cl)cc4)o3)c2n1 (stereo not shown) = 2

Next compound, please.
In: Query: inhibition at 6 µM; subject: COc1ccc2[nH]cc(CC(=O)NC(Cc3cc(F)cc(F)c3)c3ncoc3-c3ccc(Cl)cc3)c2n1 (stereo not shown)
Out: 0

====

- TEST_DETAILS: Test B: Cytotoxicity assay
- Format: cell-based
- PARTICULARS: human, uninfected MT-4 cells, same protocol as Test A, CellTiter-Glo
Please respond with reported CC50 at 5 days for every item in the list.
Numbers only, in µM.

State the recorded CC50 at 5 days for every item in the following list.
1. Cc1nc(-c2ccccc2)c([C@H](Cc2ccccc2)NC(=O)Cn2nc(C(F)(F)F)c3c2CCCC3)s1 [Compound 16]
2. Cn1cnc(C(Cc2cc(F)cc(F)c2)NC(=O)Cc2c[nH]c3ccc(C(F)(F)F)cc23)c1-c1ccc(Cl)cc1 (stereo not drawn) [Compound 32]
3. COc1ccc2[nH]cc(CC(=O)NC(Cc3cc(F)cc(F)c3)c3ncoc3-c3ccc(Cl)cc3)c2n1 (stereo not drawn) [Compound 35]

Out:
51.9
11.9
15.3

State the recorded CC50 at 5 days for every item in the following list.
1. O=C(Cc1c[nH]c2ccc(O)nc12)NC(Cc1cc(F)cc(F)c1)c1ncoc1-c1ccc(Cl)cc1 (stereo not drawn) [Compound 38]
2. Cc1cc2ncn(CC(=O)NC(Cc3cc(F)cc(F)c3)c3ncoc3-c3ccc(Cl)cc3)c2cc1C (stereo not drawn) [Compound 33H]

Out:
[19.1, 31.8]
